The measurements presented in this section are drawn from patent US12594267B2.

experiment: PK after subcutaneous administration of solutions in dogs; assay type: in vivo, Beagle dog; conditions: male, beagle, dog, plasma, sc, 12 mg/kg, dog #1; 336 h; SC 12 mg/kg, 400 mg/mL in 15% water/85% PEG 300

Mol smiles | concentration at 336 h
CC(C)(C#Cc1ccc(-c2ccc(Cl)c3c(NS(C)(=O)=O)nn(CC(F)(F)F)c23)c([C@H](Cc2cc(F)cc(F)c2)NC(=O)Cn2nc(C(F)(F)F)c3c2C(F)(F)[C@@H]2C[C@H]32)n1)S(C)(=O)=O | 135 nM

---

assay: PK after subcutaneous administration of solutions in dogs; type: in vivo, Beagle dog; details: beagle, dog, plasma, sc, 12 mg/kg, dog; SC 12 mg/kg; 300 mg/mL solution (w/w %: 23.2 water, 50.0 PEG 300, 25.7 Formula (Ia), 1.1 NaOH); mean ± SD, n=3; read-out: C56d

Compound | Scale unit | concentration at 56 d
CC(C)(C#Cc1ccc(-c2ccc(Cl)c3c(NS(C)(=O)=O)nn(CC(F)(F)F)c23)c([C@H](Cc2cc(F)cc(F)c2)NC(=O)Cn2nc(C(F)(F)F)c3c2C(F)(F)[C@@H]2C[C@H]32)n1)S(C)(=O)=O [Formula (Ia)] | nM | 29.6

---

experiment: PK after subcutaneous administration of solutions in rats; format: in vivo, Wistar Han rat; conditions: male, Wistar Han, rat, plasma, sc, 50 mg/kg, rat #1; 1344 h; SC 50 mg/kg, 300 mg/mL in 15% water/85% PEG 300
Quantity: concentration at 1344 h (nM)

Mol smiles | Quantity | Scale unit | Val
CC(C)(C#Cc1ccc(-c2ccc(Cl)c3c(NS(C)(=O)=O)nn(CC(F)(F)F)c23)c([C@H](Cc2cc(F)cc(F)c2)NC(=O)Cn2nc(C(F)(F)F)c3c2C(F)(F)[C@@H]2C[C@H]32)n1)S(C)(=O)=O | concentration at 1344 h | nM | 251

---

test: PK after subcutaneous administration of solutions in rats; assay type: in vivo, Wistar Han rat; conditions: Wistar Han, rat, plasma, sc, 50 mg/kg; SC 50 mg/kg; 400 mg/mL solution in 10% ethanol, 13% water, 77% PEG 200; mean ± SD, n=3
Quantity: Cmax (nM)

Mol smiles | Val
CC(C)(C#Cc1ccc(-c2ccc(Cl)c3c(NS(C)(=O)=O)nn(CC(F)(F)F)c23)c([C@H](Cc2cc(F)cc(F)c2)NC(=O)Cn2nc(C(F)(F)F)c3c2C(F)(F)[C@@H]2C[C@H]32)n1)S(C)(=O)=O | 283

---

experiment: PK after subcutaneous administration of solutions in rats; type: in vivo, Wistar Han rat; settings: male, Wistar Han, rat, plasma, sc, 50 mg/kg, rat #3; 1344 h; SC 50 mg/kg, 300 mg/mL in 15% water/85% PEG 300

Mol smiles | concentration at 1344 h
CC(C)(C#Cc1ccc(-c2ccc(Cl)c3c(NS(C)(=O)=O)nn(CC(F)(F)F)c23)c([C@H](Cc2cc(F)cc(F)c2)NC(=O)Cn2nc(C(F)(F)F)c3c2C(F)(F)[C@@H]2C[C@H]32)n1)S(C)(=O)=O | 278 nM

---

assay: PK after subcutaneous administration of solutions in dogs; format: in vivo, Beagle dog; settings: male, beagle, dog, plasma, sc, 12 mg/kg, dog #1; 1344 h; SC 12 mg/kg, 400 mg/mL in 15% water/85% PEG 300

Mol smiles | concentration at 1344 h
CC(C)(C#Cc1ccc(-c2ccc(Cl)c3c(NS(C)(=O)=O)nn(CC(F)(F)F)c23)c([C@H](Cc2cc(F)cc(F)c2)NC(=O)Cn2nc(C(F)(F)F)c3c2C(F)(F)[C@@H]2C[C@H]32)n1)S(C)(=O)=O | 42.7 nM
